Metric Name: melting point

[
  {
    "Compound": "CCCC(CCC)c1ccc(OCc2ccc(-c3csc(CN(CC(=O)O)Cc4ccc5[nH]ccc5n4)c3)cc2)cc1",
    "melting point": "203.4 to 205.3 °C"
  }
]

Provide measured melting point value, entry: Cc1ccc(COc2ccc(-c3csc(CN4CCC(c5cccc(C(=O)O)c5)CC4)n3)cc2)cc1[N+](=O)[O-]
205 to 210 °C

Consider the compound CCCC(CCC)c1ccc(CN(C)c2ccc(-c3csc(CN(CC(=O)[O-])C(=O)c4ccc(C(C)C)cc4)n3)cc2)cc1.[Na+] . State its measured melting point.
183 to 188 °C

Give the reported melting point for this compound. CCC(CC)c1ccc(COc2ccc(-c3csc(CN(CC(=O)O)Cc4ccc(F)cc4)n3)cc2)cc1
153 to 155 °C

Return the recorded melting point value; entry: CN(Cc1ccc(CC(C)(C)C)cc1)c1ccc(-c2csc(CN(C)C(C(=O)O)c3ccccc3)n2)cc1 (centres unmarked)
171 to 173 °C

State, in one line, measured melting point of CCCC(CCC)c1ccc(OCc2ccc(-c3csc(CN(CC(=O)O)Cc4nc5ccccc5[nH]4)c3)cc2)cc1
153 to 155 °C

# return recorded melting point for entry CN(Cc1ccc(C2CCCCC2)cc1)c1ccc(-c2csc(CN(C)S(=O)(=O)CC(=O)O)n2)cc1
178 to 183 °C

---

# Tested on: male ob/ob mice
# Test: Hypoglycemic activity in ob/ob mice
# Assay type: in vivo
# Measurement Conditions: dose 1 mg/kg oral, fasting, relative to control group
# Method: A 0.5% methyl cellulose suspension of the test compound was orally administered to 6- to 9-week-old male ob/ob mice grouped according to the glucose level. Only a 0.5% methyl cellulose solution was administered to a control group. Blood was drawn under fasting condition, which condition was started simultaneously with the administration by means of removing the feed. The blood was drawn under anesthesia from the orbital vein 3 hours after the administration. […]
Metric Name: blood glucose decreasing rate (%) 3 hours later
Please respond with the number in % and leave the unit unwritten.

Some solved entries appear below for comparison.
[
  {
    "Structure Smiles String": "CCCC(CCC)c1ccc(COc2ccc(-c3csc(CN(CC(=O)O)Cc4ccccc4)n3)cc2)cc1",
    "Study System": "male ob/ob mice",
    "Reported": 18
  },
  {
    "Structure Smiles String": "CN(Cc1ccc([C@H]2CC[C@H](C)CC2)cc1)c1ccc(-c2csc(CN(CC(=O)O)Cc3ccccn3)n2)cc1",
    "Study System": "male ob/ob mice",
    "Reported": 28
  },
  {
    "Structure Smiles String": "CCCC(CCC)c1ccc(OCc2ccc(-c3csc(N(C)Cc4ccc(C(=O)O)cc4)n3)cc2)cc1",
    "Study System": "male ob/ob mice",
    "Reported": 32
  },
  {
    "Structure Smiles String": "CCC(CC)c1ccc(COc2ccc(-c3csc(CN(CC(=O)O)Cc4ccc(C(C)C)cc4)n3)cc2)cc1",
    "Study System": "male ob/ob mice",
    "Reported": 25
  },
  {
    "Structure Smiles String": "CN(Cc1ccc([C@H]2CC[C@H](C)CC2)cc1)c1ccc(-c2csc(CN(CC(=O)O)Cc3ccccc3)n2)cc1",
    "Study System": "male ob/ob mice",
    "Reported": 14
  }
]

Param request: blood glucose decreasing rate (%) 3 hours later | system male ob/ob mice | item CCCC(CCC)c1ccc(COc2ccc(C)cc2-c2csc(CN(CC(=O)O)Cc3ccccc3)n2)cc1
18

Give blood glucose decreasing rate (%) 3 hours later; test system male ob/ob mice; compound CCCC(CCC)c1ccc(OCc2ccc(-c3csc(COc4cncc(C(=O)O)c4)n3)cc2)cc1
46

Specify the recorded blood glucose decreasing rate (%) 3 hours later for CCCC(CCC)c1ccc(CN(C)c2ccc(-c3csc(CN(CC(=O)O)Cc4ccccn4)n3)cc2)cc1 , system: male ob/ob mice.
20

Give blood glucose decreasing rate (%) 3 hours later; test system male ob/ob mice; compound CCCC(CCC)c1ccc(OCc2ccc(-c3csc(CN(CC(=O)O)Cc4ccccc4)n3)cc2)cc1
20

---

Items are presented alongside their recorded melting point.

Look over these answered cases.
[
  {
    "Structure Smiles String": "CN(Cc1ccc(C2CCC(C)(C)CC2)cc1)c1ccc(-c2csc(CN(C)S(=O)(=O)CC(=O)O)n2)cc1",
    "melting point": "184 to 190 °C"
  },
  {
    "Structure Smiles String": "CCCC(CCC)c1ccc(OCc2ccc(-c3ccc(C(=O)N(CC(=O)O)Cc4ccc(C(C)C)cc4)s3)cc2)cc1",
    "melting point": "134 to 136 °C"
  },
  {
    "Structure Smiles String": "CCCC(CCC)c1ccc(N(Cc2ccc(-c3csc(COc4cc(C(=O)O)ccc4NC(=O)CNC)n3)cc2)C(C)C)cc1",
    "melting point": "210 to 212 °C"
  }
]

Identify measured melting point corresponding to CCCC(CCC)c1ccc(N(Cc2ccc(-c3csc(CN(CC(=O)O)S(=O)(=O)N(C)c4ccccc4)n3)cc2)C(C)C)cc1
146 to 148 °C

Identify the reported melting point for the following entry. CCCC(CCC)c1ccc(N(Cc2ccc3nc(-c4csc(CN(CC(=O)O)Cc5nc6ccccc6[nH]5)n4)oc3c2)C(C)C)cc1
127 to 133 °C

Given CCCC(CCC)c1ccc(OCc2ccc(-c3ccc(C(=O)N(CC(=O)O)Cc4ccccn4)s3)cc2)cc1 , respond with its melting point.
147 to 150 °C

Kindly indicate its recorded melting point. Item: CN(Cc1ccc(CC(C)(C)C)cc1)c1ccc(-c2csc(CN(CC(=O)O)Cc3ccccc3)n2)cc1
159 to 160 °C

// fetch melting point given entry CCCC(CCC)c1ccc(N(C)Cc2ccc(-c3csc(CSc4ccc(C(=O)O)cc4)n3)cc2)cc1
122 to 124 °C

Identify measured melting point associated with CCCC(CCC)c1ccc(OCc2ccc(-c3ccc(CN(CC(=O)O)c4nc5ccccc5s4)s3)cc2)cc1
104.4 to 107.2 °C

Give a short answer stating reported melting point for C=CCn1c(CN(CC(=O)O)Cc2ccc(-c3ccc(COc4ccc(C(CCC)CCC)cc4)cc3)s2)nc2ccccc21 .
141.2 to 144.1 °C

State its melting point for this compound: CCCC(CCC)c1ccc(CN(C)c2ccc(-c3csc(CN(C)[C@H](C(=O)O)c4ccccc4)n3)cc2)cc1
146 °C

Identify measured melting point associated with CCCC(CCC)c1ccc(COc2ccc(-c3csc(CN(CC(=O)O)Cc4ccccn4)n3)cc2)cc1
155 to 156 °C

Give me measured melting point, please, for this compound: CCCC(CCC)c1ccc(OCc2ccc(-c3csc(CN(CC(=O)O)Cc4nc5ccccc5n4C)c3)cc2)cc1.O=S(=O)(O)O
137.5 to 141.5 °C

---

Metric Name: melting point

[
  {
    "Molecule": "CCCC(CCC)c1ccc(OCc2ccc(-c3csc(CN4Cc5ccccc5C[C@@H]4C(=O)O)n3)cc2)cc1 [Example 1-47]",
    "Reported": "77 to 82 °C"
  }
]

Could you please provide reported melting point for CCCC(CCC)c1ccc(OCc2ccc(-c3ccc(C(=O)N4CCC(c5ccc(C(=O)O)cc5)CC4)s3)cc2)cc1 [Example 4-53] ? Thanks!
176 to 178 °C

Give a short answer stating reported melting point for CCCC(CCC)c1ccc(CN(C)c2ccc(-c3csc(COc4ccc(C(=O)O)cc4)n3)cc2)cc1 [Example 3-95] .
175 to 177 °C

Give the reported melting point for this molecule. CCCC(CCC)c1ccc(OCc2ccc(-c3csc(COc4ccc(C(=O)O)cc4)n3)cc2)cc1 [Example 1-49]
199 to 202 °C

State its melting point for this molecule: CCCC(CCC)c1ccc(N(Cc2ccc(-c3csc(CN(CC(=O)O)Cc4nc(C)c(C)s4)n3)cc2)C(C)C)cc1 [Example 1-146]
156 to 157 °C

Specify melting point for CCCC(CCC)c1ccc(OCc2ccc(-c3csc(CN(CC(=O)O)Cc4nc5ccccc5n4C)c3)cc2)cc1.Cl [Example 4-54] and stop.
165.7 to 166.8 °C

Find the measured melting point of CCCC(CCC)c1ccc(OCc2ccc(-c3ccc(CN(CC(=O)O)Cc4ccc(OC)cc4)s3)cc2)cc1 [Example 4-77] and report it.
195.7 to 196.8 °C

Output melting point of CCCC(CCC)c1ccc(OCc2ccc(-c3csc(CN(CC(=O)O)Cc4nc5ccccc5s4)c3)cc2)cc1 [Example 4-88]
150.9 to 152.8 °C

Consider the molecule CCCC(CCC)c1ccc(OCc2ccc(-c3csc(CN(CC(=O)O)Cc4ccc(-c5cccs5)s4)c3)cc2)cc1 [Example 4-93] and give its recorded melting point.
203.8 to 206.2 °C

Determine from records and report melting point for CC(C)Cc1ccc(CN(C)c2ccc(-c3csc(CN4Cc5ccccc5CC4C(=O)O)n3)cc2)cc1 (centres unmarked) [Example 3-72]
168 to 170 °C

Determine from records and report melting point for CCCC(CCC)c1ccc(OCc2ccc(-c3csc(CN(C)c4cccc(C(=O)O)n4)n3)cc2)cc1 [Example 1-143]
123 to 125 °C

Specify melting point for CCCC(CCC)c1ccc(OCc2ccc(-c3ccc(CN(CC(=O)OCC)CC(=O)c4ccc(N5CCCC5)cc4)s3)cc2)cc1.Cl [Example 4-82] and stop.
75.3 to 79.3 °C

State, in one line, measured melting point of CCCC(CCC)c1ccc(OCc2ccc(-c3csc(CN(CC(=O)O)C(=O)COc4ccccc4)n3)cc2)cc1 [Example 1-129]
143 to 145 °C

Provide one value: measured melting point of CCC(CC)c1ccc2c(c1)nc(-c1csc(COc3ccc(C(=O)O)cc3)n1)n2Cc1ccc(C(C)C)cc1 [Example 3-129]
139 to 142 °C

Given the molecule CCC(CC)c1ccc2c(c1)nc(-c1csc(COc3ccc(C(=O)O)cc3)n1)n2CC1CCCCC1 [Example 3-132] , write its reported melting point.
176 to 183 °C

Identify measured melting point corresponding to CCCC(CCC)c1ccc(OCc2ccc(-c3ccc(CN(CC(=O)OCC)Cc4nc5ccccc5n4C)s3)cc2)cc1 [Example 4-83]
82 to 84 °C

Quick one: give measured melting point for CCCC(CCC)c1ccc(OCc2ccc(-c3csc(COc4cncc(C(=O)O)c4)c3)cc2)cc1.Cl
170 to 173 °C

Query melting point for CCCC(CCC)c1ccc(OCc2ccc(-c3ccc(CN(CC(=O)O)Cc4c[nH]c(-c5ccccc5)n4)s3)cc2)cc1 [Example 4-94]
131.8 to 137.6 °C

Give the reported value of melting point for this record: CCC(CC)c1ccc(N(Cc2ccc(-c3csc(N(C)Cc4ccc(C(=O)O)cc4)n3)cc2)C(C)C)cc1 [Example 1-20]
150 to 153 °C

Tell me measured melting point for CN(CC(=O)O)Cc1nc(-c2ccc(N(C)Cc3ccc(C4CCCCC4)cc3)cc2)cs1 [Example 3-80] please.
152 to 155 °C
